Molecular target: T1, rat PTH-1R (rat PTHR endogenously expressed on UMR-106 rat osteosarcoma cells) (rat, UniProt P25961 27-591)
T1 sequence (looked up): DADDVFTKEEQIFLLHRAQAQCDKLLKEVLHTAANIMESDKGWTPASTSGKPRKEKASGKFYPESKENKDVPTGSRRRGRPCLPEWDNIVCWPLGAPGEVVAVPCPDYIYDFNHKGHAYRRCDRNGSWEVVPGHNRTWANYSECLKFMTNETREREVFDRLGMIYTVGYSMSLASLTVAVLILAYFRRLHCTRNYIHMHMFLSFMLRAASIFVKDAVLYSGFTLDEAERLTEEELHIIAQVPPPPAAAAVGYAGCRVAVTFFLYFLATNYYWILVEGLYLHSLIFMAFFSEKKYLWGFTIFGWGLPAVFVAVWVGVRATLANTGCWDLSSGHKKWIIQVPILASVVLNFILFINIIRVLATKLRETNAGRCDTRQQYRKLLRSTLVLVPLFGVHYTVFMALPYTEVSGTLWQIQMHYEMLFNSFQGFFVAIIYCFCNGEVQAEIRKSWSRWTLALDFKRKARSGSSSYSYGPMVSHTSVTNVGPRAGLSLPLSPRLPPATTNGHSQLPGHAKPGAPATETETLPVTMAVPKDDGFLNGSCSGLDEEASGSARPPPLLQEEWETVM
Assay: cell-based or functional assay
*1 amine or outer side, *2 acyl side, *3 side chain or, on linkers, in order; H or OH if unused. Where no end group is shown, it is not given here. [ ]: non-standard residue; d: D form. αMe‑APPA = 2-amino-2-methyl-5-phenylpentanoic acid, C[C@@](CCCc1ccccc1)(N[*:1])C(=O)[*:2]; Bip(2'-Et-4'-OMe) = CCc1cc(OC)ccc1-c1ccc(C[C@H](N)C(=O)O)cc1; αMePhe(2-F) = C[C@](N)(Cc1ccccc1F)C(=O)O; hArg = N=C(N)NCCCC[C@H](N)C(=O)O; Cit = NC(=O)NCCC[C@H](N)C(=O)O; αMeP = C[C@@]1(C(=O)O)CCCN1; Nle = CCCC[C@H](N)C(=O)O; Ac5c = NC1(C(=O)O)CCCC1; Aib = CC(C)(N)C(=O)O
outcome_measure: cAMP released with respect to control, 100 nM peptide, UMR-106 cells

- binder: "[Aib]V[Aib]EIQ[αMePhe(2-F)][Nle]HQ[Cit][Aib][Cit][αMePhe(2-F)] [Seq. ID. 346]"
  result: "69 percent of control"
- binder: "[Ac5c]V[Ac5c]EIQ[αMePhe(2-F)][Nle]HQ[hArg][αMeP]K[αMePhe(2-F)] [Seq. ID. 65]"
  result: "104 percent of control"
- binder: "V[Aib]V[Aib]EIQL[Nle]HQ[hArg]A[hArg][Bip(2'-Et-4'-OMe)][αMe‑APPA] [Seq. ID. 905]"
  result: "120 percent of control"
